Entries and their TGI values follow.
test system: BT-549 breast; experiment: NCI tumour cell line growth inhibition, 48 h
property.measured: TGI

CS(=O)(=O)Nc1ccc2ccccc2c1	> 100 µM
C=C1C(=O)O[C@H]2C[C@@H]1C(=O)CC(C)CCCC(C)=CCC[C@@]2(C)O (some centres undefined)	> 25 µM
C[C@H]1[C@H](C)CC[C@]2(C(=O)OC3OC(CO)C(O)C(O)C3O)CC[C@]3(C)C(=CC[C@@H]4[C@@]5(C)C[C@@H](O)[C@@H]6OC(=O)c7cc(O)c(O)c(O)c7-c7c(cc(O)c(O)c7O)C(=O)OC[C@@]6(CO)[C@@H]5CC[C@]43C)[C@H]12 (some centres undefined)	> 100 µM
C[C@@H]1CC[C@@]2(NC1)O[C@H]1C[C@H]3[C@@H]4CC[C@H]5C[C@@H](O)CC[C@]5(C)[C@H]4CC[C@]3(C)[C@H]1[C@@H]2C	> 100 µM

* * *

Entries and their TGI values follow.
test system: NCI-H23 lung; experiment: NCI tumour cell line growth inhibition, 48 h
property.measured: TGI

CC[C@H](C)[C@H](NC(=O)c1cccn1C)C(=O)N(C)[C@H](C[C@@H](OC(C)=O)c1nc(C(=O)N[C@@H](Cc2ccccc2)C[C@H](C)C(=O)OC)cs1)C(C)C	> 33.3 µM
CC1(C)CCC[C@]2(C)c3ccccc3C(=O)CC12 (some centres not stated)	> 100 µM
Oc1ccccc1/C=N/N1C(=S)N(C23CC4CC(CC(C4)C2)C3)C(=Nc2ccccc2)C1=Nc1ccccc1	> 100 µM
Cn1c(=O)cc(NNc2ccc(Cl)c(Cl)c2)[nH]c1=O	90.7 µM
CCC1([N+](=O)[O-])CN(N=O)C1	> 100 µM
O=C1NC2C(O)CCCCC2C12CCCCC2 (configuration not stated)	> 100 µM
CO[C@@]1(c2ccccc2)O[C@H]2OCCC2[C@H]1c1ccc(Cl)cc1 (some centres not stated)	81.6 µM
NC(=O)c1ccc[n+](C2=C([O-])c3ccccc3C(=O)/C2=N\S(=O)(=O)c2ccccc2)c1	30.6 µM
CCn1ncc2c(=O)n3ncn(-c4ccc(Br)cc4)c3nc21	> 100 µM
COc1ccc(-c2cc(=O)c3c(O)c(OC)c(OC)c(OC)c3o2)cc1	> 74.7 µM
CC(C)=CCC[C@@H](C)C1=C(Nc2ccccc2F)C(O)=C(C)C(=O)C1=O	36.1 µM
CSc1nc(Cl)c2c(n1)Sc1nc3ccccc3n1C2O (configuration not stated)	> 100 µM
CCCCN(CCCC)CC(C(C)=O)C(c1ccccc1)c1c(O)c2ccccc2oc1=O (configuration not stated)	> 100 µM
Cc1cc(O)c(-c2ccc([C@@H](C)CN(C)C)cc2)c2c1[nH]c(=O)c1sccc12	6.41 µM
Cc1ccc(C)c(COCCOCn2cc(N3CCOCC3)c(=O)[nH]c2=O)c1	> 100 µM
CC[PH+](CC)CC.[Cl][Au]	3.42 µM
CC(=O)/C(=N\Nc1ccc(Cl)cc1)C(C)=Nc1ccc(C)cc1	> 100 µM
Cc1cc(-c2ccccc2)nc2oc(=O)n(C)c12	> 100 µM
COc1ccc2nc3cc(Cl)ccc3c(Nc3cc(CN4CCCC4)c(O)c(CN4CCCC4)c3)c2n1	3.88 µM
CCCCNC(=O)Cn1c2ccc(Br)cc2c2nc3ccccc3nc21	> 100 µM
CCCn1cc2c3c(cccc31)C1C=C(C)CN(C)C1C2 (configuration not stated)	61.8 µM
CC(=O)NN1C(=O)C(Cc2ccccc2)c2ccccc21 (configuration not stated)	> 100 µM
